assay: Population pharmacokinetic (PPK) analysis of MAD, XanADu and XanaHES trials; type: in vivo, human; conditions: human, plasma, oral; from kel = CL/V and t1/2 = ln(2)/Kel; read-out: mean elimination half‐life (95% CI)
valueKind: half-life (min)
Reply with just the number (in min).

Would you kindly share the measured half-life for O=C(c1csc(-c2cn[nH]c2)c1)N1C2CCC1CC(O)(c1ncccn1)C2 (stereo not shown) [emestedastat] ?
562

###

test: Population pharmacokinetic (PPK) analysis of MAD, XanADu and XanaHES trials; assay type: in vivo, human; details: human, plasma, oral; final PPK model; read-out: V/F (apparent volume of distribution), estimate
valueKind: Vd/F (L)
Quick reminder: number only, in L, skip the unit.

What value of measured Vd/F is listed for O=C(c1csc(-c2cn[nH]c2)c1)N1C2CCC1CC(O)(c1ncccn1)C2 (stereo not shown) ?
64.3
